Experiment summary: Dog PK study of C1 (S) enantiomer, single oral dose, plasma and whole blood by chiral LC-MS/MS
Assay type: in vivo, beagle dogs
Test parameters: dog, whole blood; 1032 hr; Beagle; oral 10 mg/kg; read-out: Blood Concentration
Measured property: concentration at 1032 hr (ng/mL)
I only need the number, in ng/mL, no unit after it.

Incoming: Could you share which concentration at 1032 hr value was measured for O=C(CC(F)(F)F)N1CC2(C1)OCc1cc(C3=NS[C@@](c4cc(Cl)c(F)c(Cl)c4)(C(F)(F)F)C3)ccc12 [C1 (S) enantiomer] ?
Outgoing: 13.8

----------
Experiment summary: Dog PK study of C1 (S) enantiomer, single oral dose, plasma and whole blood by chiral LC-MS/MS
Type: in vivo, beagle dogs
Test parameters: beagle, dog, whole blood, po, 10 mg/kg; oral gavage 10 mg/kg
Measured property: CL/F (mL/min/kg)
Dear colleague, please return just the value in mL/min/kg, with no unit written.

Incoming: // lookup CL/F for O=C(CC(F)(F)F)N1CC2(C1)OCc1cc(C3=NS[C@@](c4cc(Cl)c(F)c(Cl)c4)(C(F)(F)F)C3)ccc12 [C1 (S) enantiomer]
Outgoing: 1.12
